- EXPERIMENTAL_SYSTEM: P2Y purinoceptor 1 (Meleagris gallopavo) (UniProt P49652)
- Sequence (P49652 whole entry): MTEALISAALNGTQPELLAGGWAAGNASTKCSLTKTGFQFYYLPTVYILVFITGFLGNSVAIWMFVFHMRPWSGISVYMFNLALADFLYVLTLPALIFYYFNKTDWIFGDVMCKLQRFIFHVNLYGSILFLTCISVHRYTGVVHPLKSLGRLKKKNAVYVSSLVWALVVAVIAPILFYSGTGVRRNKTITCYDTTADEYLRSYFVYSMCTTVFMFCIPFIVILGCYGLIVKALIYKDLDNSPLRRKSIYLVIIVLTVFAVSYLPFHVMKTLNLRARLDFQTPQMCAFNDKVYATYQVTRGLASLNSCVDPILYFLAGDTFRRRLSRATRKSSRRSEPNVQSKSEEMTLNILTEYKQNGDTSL
- METHOD_DESCRIPTION: In vitro antagonist activity against turkey P2Y1 receptor, expressed as percent of maximal inhibition at 100 uM
- Assay type: functional
- Parameters: scale not given: the % may be the effect or the level left
MEASUREMENT_LABEL: Activity
Remember to follow the number with its unit.

Given CNc1nc(Cl)nc2c1ncn2CC1[C@H](COP(=O)(O)O)[C@H]1COP(=O)(O)O (stereo not given in full) , state its recorded Activity.
100%

Given CNc1nc(Cl)nc2c1ncn2CC(CO)COP(=O)(O)O (stereo not given) , state its recorded Activity.
68%

Given `CNc1nc(Cl)nc2c1ncn2C[C@H](COP(=O)(O)O)OP(=O)(O)O` , state its recorded Activity.
100%

Given CNc1nc(Cl)nc2c1ncn2CC(COC(C)=O)COP(=O)(O)O (stereo not given) , state its recorded Activity.
65%

Given CNc1nc(Cl)nc2c1ncn2CC1CC1(COP(=O)(O)O)COP(=O)(O)O (stereo not given) , state its recorded Activity.
100%

----------
- EXPERIMENTAL_SYSTEM: P2Y purinoceptor 1 (Meleagris gallopavo) (UniProt P49652)
- METHOD_DESCRIPTION: In vitro antagonist activity against turkey P2Y1 receptor, expressed as percent of maximal inhibition at 100 uM
- Format: functional
- Design: scale not given: the % may be the effect or the level left
Would you mind telling me the reported Activity of each entry?
// return numeric value only (unit: %, not printed)

Hi! What's the reported Activity for `CNc1nc(Cl)nc2c1ncn2CC(COP(=O)(O)O)COP(=O)(O)O` on P2Y purinoceptor 1 (Meleagris gallopavo) (UniProt P49652)?
100

Hi! What's the reported Activity for CNc1nc(Cl)nc2c1ncn2CC(COP(=O)(O)O)COP(=O)(O)OP(=O)(O)O (stereo not given) on P2Y purinoceptor 1 (Meleagris gallopavo) (UniProt P49652)?
100

Hi! What's the reported Activity for `CNc1nc(Cl)nc2c1ncn2C[C@@H]1[C@H](COP(=O)(O)O)[C@@H]1COP(=O)(O)O` on P2Y purinoceptor 1 (Meleagris gallopavo) (UniProt P49652)?
100

Hi! What's the reported Activity for `CNc1nc(Cl)nc2c1ncn2CC=C(COP(=O)(O)O)COP(=O)(O)O` on P2Y purinoceptor 1 (Meleagris gallopavo) (UniProt P49652)?
100

Hi! What's the reported Activity for `CNc1nc(Cl)nc2c1ncn2CC(CCOP(=O)(O)O)CCOP(=O)(O)O` on P2Y purinoceptor 1 (Meleagris gallopavo) (UniProt P49652)?
100

Hi! What's the reported Activity for `CNc1nc(Cl)nc2c1ncn2CCC(COP(=O)(O)O)COP(=O)(O)O` on P2Y purinoceptor 1 (Meleagris gallopavo) (UniProt P49652)?
99

Hi! What's the reported Activity for `CNc1ncnc2c1ncn2CCC(COP(=O)(O)O)COP(=O)(O)O` on P2Y purinoceptor 1 (Meleagris gallopavo) (UniProt P49652)?
100

Hi! What's the reported Activity for CNc1nc(Cl)nc2c1ncn2CC(COP(=O)(O)O)COP(=O)(OC)OC (stereo not given) on P2Y purinoceptor 1 (Meleagris gallopavo) (UniProt P49652)?
78

Hi! What's the reported Activity for `CNc1nc(Cl)nc2c1ncn2C[C@@H](COP(=O)(O)O)OP(=O)(O)O` on P2Y purinoceptor 1 (Meleagris gallopavo) (UniProt P49652)?
100

Hi! What's the reported Activity for `CNc1nc(Cl)nc2c1ncn2C(COP(=O)(O)O)COP(=O)(O)O` on P2Y purinoceptor 1 (Meleagris gallopavo) (UniProt P49652)?
100
